# Target Or System: Zinc finger protein mex-5 (Caenorhabditis elegans) (UniProt Q9XUB2)
# Sequence (Q9XUB2 whole entry, looked up): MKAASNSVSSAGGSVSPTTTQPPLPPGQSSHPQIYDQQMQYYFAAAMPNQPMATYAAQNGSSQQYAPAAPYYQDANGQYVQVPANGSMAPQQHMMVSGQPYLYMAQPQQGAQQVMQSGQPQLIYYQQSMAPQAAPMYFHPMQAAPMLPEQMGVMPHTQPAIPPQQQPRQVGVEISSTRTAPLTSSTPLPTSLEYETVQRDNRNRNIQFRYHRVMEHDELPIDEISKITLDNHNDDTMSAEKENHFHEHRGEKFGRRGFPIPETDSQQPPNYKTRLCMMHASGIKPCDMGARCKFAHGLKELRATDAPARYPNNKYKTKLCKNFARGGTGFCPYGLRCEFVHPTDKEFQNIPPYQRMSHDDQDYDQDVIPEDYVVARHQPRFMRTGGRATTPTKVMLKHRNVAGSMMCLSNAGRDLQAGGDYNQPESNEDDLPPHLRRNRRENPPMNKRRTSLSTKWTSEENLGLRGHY
# Measurement Notes: MEX-5 RNA-binding inhibition confirmation – biochemical, C. elegans, fluorescence polarization, dose retest (AID 449745);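 note: potency is for blocking Mex-5 binding to labeled TCR2 RNA like unlabeled competitor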
# Setup Conditions: Mex-5 / TCR-2 RNA binding
Results filed as inconclusive are left out. The source made the active and inactive calls. The rule behind the calls is not given here.
Select the correct class. Options are y (active), n (inactive) and nothing else.

For orientation, consider the following solved cases.
compound=O=C1CCCC(O)=C1N=Nc1ccc(C(=O)O)cc1 answer_label=y
compound=Cc1cc(=O)[nH]c(SCc2nc3ccc([N+](=O)[O-])cc3[nH]2)n1 answer_label=y
compound=CCOC(=O)c1c(/N=C/C2C(=O)NC(=S)NC2=O)sc2c1CCC2 answer_label=y
compound=CCOC(=O)c1c(-c2ccc(C)o2)csc1NC(=S)NC(=O)c1cccs1 answer_label=n

Hi, sorry to bother you, what did the test record for CN1CCN(c2ccc([N+](=O)[O-])c3no[n+]([O-])c23)CC1 ? y

Record lookup: outcome of this test for CCNC(=S)N/N=C/c1sc(N2CCCCC2)nc1-c1cccs1 ? y

What classification did Cc1c(C(=O)NNC(=S)Nc2ccc(S(N)(=O)=O)cc2)oc2ccccc12 end up with in this test? y

Could you please tell me the result logged for O=C(Nc1nc2c(s1)CN(Cc1ccccc1)CC2)c1cccc(S(=O)(=O)N2CCc3ccccc32)c1 in this assay? n

Could you kindly confirm the outcome this assay logged for O=C1CCNc2ccc(-c3ccccc3)cc21 ? y
